- system.name: Recombinant RNF126 (Homo sapiens, UniProt Q9BV68)
- Construct: FLAG (C); host or cells: HEK293T
- Sequence (Q9BV68 whole entry): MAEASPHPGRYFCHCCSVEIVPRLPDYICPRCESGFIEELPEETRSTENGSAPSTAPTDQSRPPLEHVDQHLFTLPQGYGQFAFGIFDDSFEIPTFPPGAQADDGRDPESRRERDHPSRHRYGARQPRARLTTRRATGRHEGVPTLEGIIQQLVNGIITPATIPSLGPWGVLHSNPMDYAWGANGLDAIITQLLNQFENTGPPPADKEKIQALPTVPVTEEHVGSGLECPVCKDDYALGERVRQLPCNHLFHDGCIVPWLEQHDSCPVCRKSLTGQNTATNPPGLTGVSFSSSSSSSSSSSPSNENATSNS
- method.description: RNF126 Binding Assay, gel-based ABPP
pIC50: −log10 of the molar value.
metric.name: pIC50

Use these answered entries as a reference point.
For Recombinant RNF126 (Homo sapiens, UniProt Q9BV68), provide pIC50 of COc1ccc(C(=O)/C=C(\C)C(=O)N2CCN(C(=O)OC(C)(C)C)CC2)cc1 please. 4.30 to 5.00

For O=C(/C=C/C(=O)N1CCNCC1)c1ccc(F)cc1 then? 5.00 to 6.00

New cases:
Look up pIC50 with Recombinant RNF126 (Homo sapiens, UniProt Q9BV68) for this compound: CC(C)(C)OC(=O)N1CCN(C(=O)/C=C/C(=O)c2ccc3c(c2)OCC3)CC1 > 7.00

* * *

- system.name: BRD4 short (Homo sapiens)
- Construct: endogenous in cells; host or cells: HEK293T
- method.description: BRD4 (short) degradation assay, Western blotting
- Type: cell-based
- applied.conditions: second value of cell (long/short)
Reported values of DC50 for individual entries

Item under review: Cc1sc2c(c1C)C(c1ccc(Cl)cc1)=N[C@@H](CC(=O)N[C@H]1C[C@H](NC(=O)/C=C/C(=O)c3ccc(=O)n(C)c3)C1)c1nnc(C)n1-2 . Reported DC50? 1000 nM

Please do the same for COc1ccc2c(c1)CCCN2C(=O)/C=C/C(=O)N1CCN(C(=O)C[C@@H]2N=C(c3ccc(Cl)cc3)c3c(sc(C)c3C)-n3c(C)nnc32)CC1 as well. 10 to 100 nM

Also check COc1ccc(C(=O)/C=C/C(=O)N2CC3CCC(C2)N(C(=O)C[C@@H]2N=C(c4ccc(Cl)cc4)c4c(sc(C)c4C)-n4c(C)nnc42)C3)cc1 (stereo partly drawn) 10 to 100 nM

Repeat for the following molecule: Cc1sc2c(c1C)C(c1ccc(Cl)cc1)=N[C@@H](CC(=O)N1CCN(C(=O)/C=C/C(=O)c3ccc(C#N)cc3)CC1)c1nnc(C)n1-2 < 100 nM

What would you report for COc1ccc(/C=C/S(=O)(=O)N2CCN(C(=O)C[C@@H]3N=C(c4ccc(Cl)cc4)c4c(sc(C)c4C)-n4c(C)nnc43)CC2)cc1 ? > 5000 nM

Now give it for Cc1sc2c(c1C)C(c1ccc(Cl)cc1)=N[C@@H](CC(=O)NC1CC(NC(=O)/C=C/C(=O)N3CC4(COC4)C3)C1)c1nnc(C)n1-2 (stereo partly drawn) too. > 5000 nM

* * *

- system.name: BRD4 short (Homo sapiens, UniProt O60885)
- Construct: endogenous in cells; host or cells: HEK293T
- method.description: BRD4 (short) degradation assay, Western blotting
- Format: cell-based
- applied.conditions: second value of cell (long/short)
metric.name: DC50

Which DC50 is listed for Cc1sc2c(c1C)C(c1ccc(Cl)cc1)=N[C@@H](CC(=O)N1CCN(C(=O)/C=C/C(=O)c3ccc(=O)n(C)c3)CC1)c1nnc(C)n1-2 [Compound 242] ? 0.04 µM

Queued: Cc1sc2c(c1C)C(c1ccc(Cl)cc1)=N[C@@H](CC(=O)N1CCN(C(=O)/C=C/C(=O)N3CCOCC3)CC1)c1nnc(C)n1-2 [Compound 248] > 5 µM

How about this compound: COc1ccc(C(=O)/C=C/C(=O)NC2CC(NC(=O)C[C@@H]3N=C(c4ccc(Cl)cc4)c4c(sc(C)c4C)-n4c(C)nnc43)C2)cc1 (stereo partly drawn) [Compound 222] 0.001 to 0.01 µM
